Target: CaRvs167
Assay: SPOT peptide array binding signal intensity (averaged, normalized) (arbitrary units (background-subtracted, floor 0; scale differs between SH3 domains)); higher = stronger binding of the SH3 domain to the peptide
Categories are defined by ranges of SPOT peptide array binding signal intensity, namely L: < 8; M: ≥ 8 and < 50; H: ≥ 50

Answered cases to consult:
| Binder | Category |
| --- | --- |
| KRKRFNLLLPKPYLT | M |
| PSRRDSLSIPRAVDA | L |
| RRRIAYPFYPFKKLG | M |
| DLFKPLPEPPTELGR | L |
| SHRLWLYAAPKRPKT | M |

Hi, small favor: classify `EEEEEHPPLPARRKS` by its SPOT peptide array binding signal intensity when you get a moment.
H

Could you tell me which band `STPQTMRQAPKRPDA` belongs to?
M

Band assignment needed for `HGKRRAPLLLAKLDV` please.
L

Lab note: which band did `DFTLPPPPPPPGLDE` land in?
L
